Let's go through some recorded GI50 values for HOP-92 together.
measurement type: GI50

molecule	assayed system	reported measurement
CC1=C2[C@@H](CC1)[C@]1(C)O[C@@](C3CC3)(C[C@H]1OC(=O)CO)[C@H]2OC(=O)C=Cc1ccccc1	HOP-92	17 µM
CC1=C2[C@@H](CC1)[C@]1(C)O[C@@](C(C)C)(C[C@H]1OC(=O)CO)[C@H]2OC(=O)/C=C/c1ccccc1	HOP-92	100 µM
CC1=C2[C@@H](CC1)[C@]1(C)O[C@@](C(C)C)(C[C@H]1OC(=O)[C@H](C)O)[C@H]2OC(=O)C=Cc1ccccc1	HOP-92	6 µM
CC1=C2[C@@H](CC1)[C@]1(C)O[C@@](C(C)C)(C[C@H]1OC(=O)CO)[C@H]2OC(=O)C1CC1c1ccccc1 (stereo partly drawn)	HOP-92	13 µM
CC1=C2[C@@H](CC1)[C@]1(C)O[C@@](C3CCCCC3)(C[C@H]1OC(=O)CO)[C@H]2OC(=O)C=Cc1ccccc1	HOP-92	6 µM
CC1=C2[C@@H](CC1)[C@]1(C)O[C@@](c3ccccc3)(C[C@H]1OC(=O)CO)[C@H]2OC(=O)C=Cc1ccccc1	HOP-92	14 µM
